inhibition values, listed per item
target: D(3) dopamine receptor (Homo sapiens, UniProt P35462); assay: Binding affinity to cloned human Dopamine receptor D3 expressed in CHO cells using [3H]spiperone at 100 nM concentration; type: cell-based
Sequence (P35462 whole entry): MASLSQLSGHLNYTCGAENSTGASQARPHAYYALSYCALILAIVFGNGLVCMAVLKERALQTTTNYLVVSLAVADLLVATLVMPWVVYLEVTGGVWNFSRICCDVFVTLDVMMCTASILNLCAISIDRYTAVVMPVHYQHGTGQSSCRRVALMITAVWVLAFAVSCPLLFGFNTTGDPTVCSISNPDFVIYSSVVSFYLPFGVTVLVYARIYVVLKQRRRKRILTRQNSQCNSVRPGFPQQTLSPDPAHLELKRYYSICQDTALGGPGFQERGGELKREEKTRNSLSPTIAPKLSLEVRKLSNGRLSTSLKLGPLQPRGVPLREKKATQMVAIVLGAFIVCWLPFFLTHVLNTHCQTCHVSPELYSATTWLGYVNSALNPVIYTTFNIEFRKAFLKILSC
Give the quantity in %, number only.

Worked examples follow.
c1cnc(N2CCN(CC3c4ccccc4-c4ccccc43)CC2)nc1
95
c1cnc(N2CCN(Cc3cccc4c3oc3ccccc34)CC2)nc1
91
c1cnc(N2CCN(Cc3cccc4c3sc3ccccc34)CC2)nc1
101

Exam item: Given the compound `c1cnc(N2CCN(Cc3ccc4c(c3)Cc3ccccc3-4)CC2)nc1` , what is its reported inhibition?
Marked response: 91

* * *

Form: system (5-hydroxytryptamine receptor 1A (Rattus norvegicus)), quantity (IC50), values below.
Give the quantity in nM, number only.

c1cnc(N2CCN(Cc3cccc(-c4ccsc4)c3)CC2)nc1
600
Fc1ccc(-c2cccc(CN3CCN(c4ncccn4)CC3)c2)cc1
700
Fc1ccc(-c2cncc(CN3CCN(c4ccccn4)CC3)c2)cc1
10
COc1cccc(-c2cccc(CN3CCN(c4ncccn4)CC3)c2)c1
700

Exam item: Given the compound `Fc1cccc(-c2cccc(CN3CCN(c4ncccn4)CC3)c2)c1` , what is its reported IC50?
Marked response: 300

* * *

Target chain: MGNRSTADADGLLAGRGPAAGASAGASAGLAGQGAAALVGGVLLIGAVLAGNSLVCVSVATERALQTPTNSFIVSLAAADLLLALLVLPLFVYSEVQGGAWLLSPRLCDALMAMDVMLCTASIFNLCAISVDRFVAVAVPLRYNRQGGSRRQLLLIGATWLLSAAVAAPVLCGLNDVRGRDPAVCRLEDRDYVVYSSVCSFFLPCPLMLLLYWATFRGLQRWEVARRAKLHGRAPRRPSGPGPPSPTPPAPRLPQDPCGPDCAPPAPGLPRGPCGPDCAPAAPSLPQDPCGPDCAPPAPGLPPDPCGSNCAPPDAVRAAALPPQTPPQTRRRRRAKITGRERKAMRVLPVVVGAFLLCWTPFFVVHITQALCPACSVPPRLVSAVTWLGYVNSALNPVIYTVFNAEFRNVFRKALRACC
Define the label as true (1) when IC50 is strictly less than 8 nM and as false (0) in all remaining cases.

Fc1ccc(-c2cncc(CN3CCN(c4ccccn4)CC3)c2)cc1
true (1)

Exam item: Confirm or reject: IC50 of `Fc1ccc(-c2cncc(CN3CCN(c4cnccn4)CC3)c2)cc1` lies strictly below 8 nM
Marked response: false (0)

Exam item: Confirm or reject: IC50 of `Fc1ccc(-c2cncc(CN3CCN(c4ccccc4)CC3)c2)cc1` lies strictly below 8 nM
Marked response: true (1)

Exam item: Confirm or reject: IC50 of `c1cnc(N2CCN(Cc3cccc4c3oc3ccccc34)CC2)nc1` lies strictly below 8 nM
Marked response: false (0)

Exam item: Confirm or reject: IC50 of `c1cnc(N2CCN(Cc3cccc4c3Cc3ccccc3-4)CC2)nc1` lies strictly below 8 nM
Marked response: false (0)

Exam item: Confirm or reject: IC50 of `c1cnc(N2CCN(Cc3cccc4c3-c3ccccc3C4)CC2)nc1` lies strictly below 8 nM
Marked response: false (0)

* * *

Target: 5-hydroxytryptamine receptor 1A (Rattus norvegicus, UniProt P19327)
Sequence (P19327 whole entry): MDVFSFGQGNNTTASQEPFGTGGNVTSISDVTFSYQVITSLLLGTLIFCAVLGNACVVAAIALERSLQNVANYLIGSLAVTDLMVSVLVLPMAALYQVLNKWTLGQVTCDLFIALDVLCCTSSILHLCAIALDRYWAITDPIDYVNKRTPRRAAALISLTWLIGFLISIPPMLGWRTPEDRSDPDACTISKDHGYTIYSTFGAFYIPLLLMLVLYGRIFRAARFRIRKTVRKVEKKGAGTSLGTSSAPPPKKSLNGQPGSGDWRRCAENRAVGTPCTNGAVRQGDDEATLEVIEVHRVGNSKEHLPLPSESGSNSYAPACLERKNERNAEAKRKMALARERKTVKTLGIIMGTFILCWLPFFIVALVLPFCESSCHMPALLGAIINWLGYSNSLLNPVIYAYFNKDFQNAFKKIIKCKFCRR
Attribute measured: IC50

Worked examples follow.
c1cnc(N2CCN(Cc3ccc4c(c3)Cc3ccccc3-4)CC2)nc1
> 100 nM
c1cnc(N2CCN(Cc3cccc4c3Cc3ccccc3-4)CC2)nc1
> 10000 nM
c1cnc(N2CCN(CC3c4ccccc4-c4ccccc43)CC2)nc1
> 100 nM
CC(C)Oc1cccnc1N(C)C1CCN(Cc2ccccc2)CC1
> 1000 nM
c1cnc(N2CCN(Cc3cccc4c3-c3ccccc3C4)CC2)nc1
> 100 nM

Exam item: Identify the measured IC50 of `c1cnc(N2CCN(Cc3cccc4c3sc3ccccc34)CC2)nc1` for 5-hydroxytryptamine receptor 1A (Rattus norvegicus, UniProt P19327).
Marked response: > 100 nM

Exam item: Identify the measured IC50 of `c1cnc(N2CCN(Cc3cccc4c3oc3ccccc34)CC2)nc1` for 5-hydroxytryptamine receptor 1A (Rattus norvegicus, UniProt P19327).
Marked response: > 100 nM
